System: U2OS
Experiment: Multiplex assay against U2OS
Type: toxicity, cell-based
Details: human, 48 h, 1 µM, compound concentration 1 uM
assay_endpoint: Population Normal (%)
Units required after the number.

# annotated cases, reported Population Normal (%) shown
COC(c1ccccc1)(c1ccccc1)[C@H](Oc1nc(C)cc(C)n1)C(=O)O
97%
C=CC(=O)N1CCC[C@@H](n2nc(C(=O)Nc3ccc(CC(=O)N(C)C)c(C)c3C)c3c(N)ncnc32)C1
100%

stdin: Please tell me the measured Population Normal (%) for CCOC(=O)c1c(/C(C#N)=C\N)c2ccc(Cl)c(Cl)c2n1C ; system: U2OS.
stdout: 100%

stdin: Please tell me the measured Population Normal (%) for COC(=O)C1=C(C)NC(C)=C(C(=O)OC(C)C)C1c1cccc2nonc12 (stereo not given) ; system: U2OS.
stdout: 100%

stdin: Please tell me the measured Population Normal (%) for CC(N)C1CCC(C(=O)Nc2ccncc2)CC1 (stereo not given) ; system: U2OS.
stdout: 100%
